These data points were gathered from ChEMBL document CHEMBL1127801.

Test system: Mus musculus
Assay Protocol: In vivo antagonist activity against PAF-Induced paw edema in the mouse
Format: functional
Property Label: ED50

Incoming: Need ED50, item COc1cc(C(=O)c2cccc(NC(=O)[C@@H]3CSC(c4cccnc4)N3)c2)cc(OC)c1OC (stereo partly drawn)
Outgoing: 0.476 mg/kg

Incoming: Need ED50, item CN(C)C(=O)n1cc(C(=O)[C@@H]2CSC(c3cccnc3)N2)c2cccc(OCc3ccccc3)c21 (stereo partly drawn)
Outgoing: 0.091 mg/kg

Incoming: Need ED50, item Cc1ccc2c(C(=O)[C@@H]3CSC(c4cccnc4)N3)cn(C(=O)OC(C)(C)C)c2c1 (stereo partly drawn)
Outgoing: 1.19 mg/kg

Incoming: Need ED50, item CN(C)C(=O)n1cc(C(=O)[C@@H]2CSC(c3cccnc3)N2)c2ccccc21 (stereo partly drawn)
Outgoing: 0.979 mg/kg

Incoming: Need ED50, item COc1ccc2c(C(=O)[C@@H]3CSC(c4cccnc4)N3)c[nH]c2c1 (stereo partly drawn)
Outgoing: 3.7 mg/kg

Incoming: Need ED50, item COC(=O)n1cc(C(=O)[C@@H]2CSC(c3cccnc3)N2)c2ccccc21 (stereo partly drawn)
Outgoing: 1.97 mg/kg

Incoming: Need ED50, item O=C(c1cn(C(=O)N2CCOCC2)c2cc(OCc3ccccc3)ccc12)[C@@H]1CSC(c2cccnc2)N1 (stereo partly drawn)
Outgoing: 3.7 mg/kg

Incoming: Need ED50, item CCCOc1c(OC)cc([C@@H]2CC[C@@H](c3cc(OC)c(OC)c(OC)c3)O2)cc1S(=O)(=O)CCO
Outgoing: 11.5 mg/kg

* * *

Study Target: Platelet-activating factor receptor (Oryctolagus cuniculus)
Assay Protocol: Functional inhibition of PAF-induced platelet degranulation
If the reported Kb equals or exceeds 2 nM, assign 1.0. If not, assign 0.0.

Incoming: Determine whether measured Kb meets or exceeds 2 nM for CCS(=O)(=O)n1cc(C(=O)[C@@H]2CSC(c3cccnc3)N2)c2ccccc21 (stereo partly drawn)
Outgoing: 0.0

Incoming: Determine whether measured Kb meets or exceeds 2 nM for O=C(c1cn(Cc2ccccc2)c2ccccc12)[C@@H]1CSC(c2cccnc2)N1 (stereo partly drawn)
Outgoing: 1.0

Incoming: Determine whether measured Kb meets or exceeds 2 nM for CC(C)(C)OC(=O)n1cc(C(=O)[C@@H]2CSC(c3cccnc3)N2)c2ccccc21 (stereo partly drawn)
Outgoing: 0.0

Incoming: Determine whether measured Kb meets or exceeds 2 nM for CN(C(=O)n1cc(C(=O)[C@@H]2CSC(c3cccnc3)N2)c2ccccc21)c1ccccc1 (stereo partly drawn)
Outgoing: 0.0

Incoming: Determine whether measured Kb meets or exceeds 2 nM for O=C(O)C(F)(F)F.O=C(c1c[nH]c2c(OCc3ccccc3)cccc12)[C@@H]1CSC(c2cccnc2)N1 (stereo partly drawn)
Outgoing: 0.0

Incoming: Determine whether measured Kb meets or exceeds 2 nM for O=C(c1c[nH]c2cc(OCc3ccccc3)ccc12)[C@@H]1CSC(c2cccnc2)N1 (stereo partly drawn)
Outgoing: 0.0

Incoming: Determine whether measured Kb meets or exceeds 2 nM for CN(C)C(=O)n1cc(C(=O)[C@@H]2CSC(c3cccnc3)N2)c2ccccc21 (stereo partly drawn)
Outgoing: 0.0

Incoming: Determine whether measured Kb meets or exceeds 2 nM for CC(C)(C)OC(=O)n1cc(C(=O)[C@@H]2CSC(c3cccnc3)N2)c2ccc(OCc3ccccc3)cc21 (stereo partly drawn)
Outgoing: 0.0

Incoming: Determine whether measured Kb meets or exceeds 2 nM for O=C([C@@H]1CSC(c2cccnc2)N1)n1ccc2ccc(OCc3ccccc3)cc21 (stereo partly drawn)
Outgoing: 1.0

Incoming: Determine whether measured Kb meets or exceeds 2 nM for O=C(c1ccccc1)c1cccc(NC(=O)[C@@H]2CSC(c3cccnc3)N2)c1 (stereo partly drawn)
Outgoing: 1.0

Incoming: Determine whether measured Kb meets or exceeds 2 nM for COc1cc(C(=O)c2cccc(NC(=O)[C@@H]3CSC(c4cccnc4)N3)c2)cc(OC)c1OC (stereo partly drawn)
Outgoing: 0.0
